Provide the recorded IC50 [M], NFκB-luciferase, 600 pM hIL-36β for the entries that follow.
Target: T1, Macaca fascicularis IL-36R on cells (Macaca fascicularis, UniProt A0A2K5WSK9 20-558)
T1 sequence: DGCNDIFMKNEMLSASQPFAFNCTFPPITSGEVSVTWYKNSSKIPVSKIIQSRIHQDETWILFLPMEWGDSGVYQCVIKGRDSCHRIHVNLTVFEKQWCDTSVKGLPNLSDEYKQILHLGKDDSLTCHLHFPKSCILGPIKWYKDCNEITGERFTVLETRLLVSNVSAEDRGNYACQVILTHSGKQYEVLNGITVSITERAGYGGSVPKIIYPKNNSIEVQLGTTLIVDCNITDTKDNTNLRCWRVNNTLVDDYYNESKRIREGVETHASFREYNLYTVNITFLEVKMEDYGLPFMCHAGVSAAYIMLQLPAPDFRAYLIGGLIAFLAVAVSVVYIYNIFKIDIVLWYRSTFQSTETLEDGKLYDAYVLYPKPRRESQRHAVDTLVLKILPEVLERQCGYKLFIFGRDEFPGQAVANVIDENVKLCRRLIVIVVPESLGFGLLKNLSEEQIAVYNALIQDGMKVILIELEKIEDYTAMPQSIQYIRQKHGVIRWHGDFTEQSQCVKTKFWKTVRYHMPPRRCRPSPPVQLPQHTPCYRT
Assay: cell-based or functional assay

Data request, read-out IC50 [M], NFκB-luciferase, 600 pM hIL-36β, for H4H14731P (antibody, human IgG4 S228P, kappa, V domains shown) VH: QLQLQESGPGLVKPSETLSLTCTVSGGSISSSNYYWGWIRQPPGKRLEWIGSIYYSGSTYYNPSLKTRVTISVDTSKNQFSLKLTSVTAADTAVYYCAREEAAALTHFDFWGQGTLVTVSS VL: DIQMTQSPSSLSASVGDRVTITCRASQSISNYLNWYQQKPGKAPKLLIFAASSLQSGVPSRFSGSGSGTDFTLTISSLQPEDFATYYCQHSHSSHPITFGQGTRLEIKR 7.1e-09 M

Please give the measured IC50 [M], NFκB-luciferase, 600 pM hIL-36β for this binder: H4H14728P (antibody, human IgG4 S228P, kappa, V domains shown) VH: QVQLQESGPGLVKPSQTLSLTCTVSGGSISSADYYWSWIRQHPGKGLEWIGSIYYTGSTYYNPSLKSRLTISIDTSENQFSLKLTSLTAADTAVYYCASEEANWGSHFDSWGQGTLVTVSS VL: DIQMTQSPSSLSASVGDRVTITCRASQSIDNFLNWYQQKPGKAPKLLIYAASSLQSGVPSRFSGSGSGTDFTLTISSLQPEDFASYYCQHSHSAHPITFGQGTRLEIKR 1.5e-09 M

I am curious: what IC50 [M], NFκB-luciferase, 600 pM hIL-36β value has been reported for H4H14708P2 (antibody, human IgG4 S228P, kappa, V domains shown) VH: EVQLVESGGDLVQPGRSLRLSCAASGFTFDDYAMHWVRQAPGKGLEWVSVISWNSDVIAYSDSVKGRFTISRDNAKNSLYLQMNSLRTEDTALYYCTKGHKWSFFDYWGQGTLVTVSS VL: EIVLTQSPATLSLSPGERATLSCRASQSISSYLAWYQQKPGQAPRLLIFNVANRATDIPARFSGSGSGTDFTLTISSLEPEDFAVYYCQQRSNWPLTFGGGTKVEIKR ? 1.2e-10 M

Query (binder): H4H14700P2 (antibody, human IgG4 S228P, kappa, V domains shown) VH: EVQLVESGGGLVQPGRSLRLSCAASGFTFDDYAMHWVRQTPGKGLEWVSVISWNSDVIAYSDSVKGRFTISRDNAKNSLYLQMNSLGTEDTALYYCAKGHNWNFFDYWGQGTLVTVSS VL: EIVLTQSPATLSLSPGERATLSCRASQSVSSYLAWYQQKPGQAPRLLIYNVANRATDIPARFSGSGSGTDFTLTISGLEPEDFAVYFCQQRSNWPLTFGGGTKVEIKR ; field requested: IC50 [M], NFκB-luciferase, 600 pM hIL-36β 1.8e-10 M

Which IC50 [M], NFκB-luciferase, 600 pM hIL-36β is listed for H4H14699P2 (antibody, human IgG4 S228P, kappa, V domains shown, Fully human anti-IL-36R antibody) VH: EVQLVESGGGLVQPGRSLRLSCAASGFTFDDYAIHWVRQAPGKGLEWVSVISWNSDIIGYADSVKGRFTVSRDNAKNSLYLQMNSLRTEDTALYYCAKGYNWNFFDYWGQGTLVTVSS VL: EIVLTQSPATLSLSPGERATLSCRASQSVSSYLAWYQQKPGQAPRLLIYNAANRATDIPARFSGSGSGTDFTLTISSLEPEDFAVYYCQQRSNWPLTFGGGTKVEIKR ? 1.9e-10 M

Need IC50 [M], NFκB-luciferase, 600 pM hIL-36β of H4H14706P2 (antibody, human IgG4 S228P, kappa, V domains shown) VH: EVQLVESGGGLVQPGRSLRLSCTASGFTFDDYAIHWVRQSPGKGLEWVSVISWNSDVIGYADSVKGRFTISRDNAKNSLYLQMNSLRAEDTALYYCAKGYNWNFFDYWGQGTLVTVSS VL: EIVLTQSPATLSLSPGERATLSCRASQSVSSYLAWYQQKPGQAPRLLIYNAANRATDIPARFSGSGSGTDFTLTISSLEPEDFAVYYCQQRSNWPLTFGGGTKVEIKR , thanks. 1.2e-10 M

Record request: IC50 [M], NFκB-luciferase, 600 pM hIL-36β value, item H4H14757P (antibody, human IgG4 S228P, kappa, V domains shown) VH: EVQLVESGGGLVQPGRSLRLSCTASGFTFDDYAMHWVRQAPGKGLEWVSGIRWNGGSIGYVDSVKGRFTISRDNAKKSLHLQMNSLKTEDTALYYCAKDIGDILTGFYGEYGMDVWGQGTTVTVSS VL: DIQMTQSPSSLSASEGDRVTITCRASQSISSYLNWYQQKAGKAPNLLIYAASSLQSGVPSRFSGSGSGTEYTLTISSLQPEDFATYYCQQSYIIPYTFGQGTKLEIKR > 1e-07 M
